tested on: PLC/PRF/5 KSR2 OE (PLC cells overexpressing KSR2); experiment: Cell IC50 assay (CCK8 cell viability), PLC/PRF/5 KSR2 OE; type: cell-based; details: Homo sapiens, PLC-PRF-5; hepatoma cells, 72 h incubation, CCK8; read-out: IC50 value of cell viability, PLC/PRF/5 KSR2 OE (PLC cells overexpressing KSR2)
Outcome measure: IC50 (µM)

| Smi | Outcome measure | Unit string | Measured number |
| --- | --- | --- | --- |
| CN1CCN(C2CCN(CCCNC(=O)c3nn(C)c4c3COc3cc(Cl)c(C#N)cc3-4)CC2)CC1 | IC50 | µM | 1 |
| CN1CCN(C2CCN(CCCNC(=O)c3nn(CC(C)(C)O)c4c3CSc3ccccc3-4)CC2)CC1 | IC50 | µM | 21 |
| Cc1ccc2c(c1)OCc1c(C(=O)NCCCN3CCC(N4CCN(C)CC4)CC3)nn(C)c1-2 | IC50 | µM | 8 |
| Cn1nc(C(=O)NCC(F)(F)CN2CCN(c3ccccc3)CC2)c2c1-c1ccccc1SC2 | IC50 | µM | 8 |
